# EXPERIMENTAL_SYSTEM: HLA-A3303 (Homo sapiens, UniProt P04439, A270S/D185E/E176V/E277Q/E87N/F33T/G231S/H175R/I121M/I218V/I322F/K168Q/L300P/L318F/M331R/P217A/Q86R/Q94H/R138Q/T323A/T345S/T97I/V358M)
# METHOD_SUMMARY: Peptide competitive binding assay, HMy2.CIR cells expressing A3303
# MEASUREMENT_SETUP: A3303; peptide 15 μM vs FITC-labeled reference peptide 300 nM, 24 h, 4°C, flow cytometry
Where no end group is shown, it is not given here.
Parameter threshold = 80%. Response is criterion met when inhibition at 15 µM meets or exceeds it, else criterion not met.

- SEQUENCE_CONTENT: "TFYVDGAASR [Peptide P110]"
  DISCRETE_LABEL: "criterion met"
- SEQUENCE_CONTENT: "IQNFRVYYR [Peptide P112]"
  DISCRETE_LABEL: "criterion not met"
- SEQUENCE_CONTENT: "MAVFIHNFKR [Peptide P109]"
  DISCRETE_LABEL: "criterion not met"
- SEQUENCE_CONTENT: "DAWEKIRLR [Peptide P104]"
  DISCRETE_LABEL: "criterion met"
- SEQUENCE_CONTENT: "MVHQPISPR [Peptide P103]"
  DISCRETE_LABEL: "criterion met"
- SEQUENCE_CONTENT: "MTKILEPFR [Peptide P102]"
  DISCRETE_LABEL: "criterion not met"
- SEQUENCE_CONTENT: "ATLWCVHQR [Peptide P34]"
  DISCRETE_LABEL: "criterion not met"
- SEQUENCE_CONTENT: "MAHQPLSPR [Peptide P111]"
  DISCRETE_LABEL: "criterion met"
